- assayDetails: measurement of absorption by small intestine in rat
- Type: in vivo
- setupConditions: small intestine loop, 5 mg/kg, male SD rats, intestinal loop, 5 mg/10 ml in 5% glucose, 10 ml/kg, read-out: absorption (absorption ratio by small intestine loop)
readoutKind: Fa at 2 h (%)
Answer with a number only, understood to be in %.

Please list Fa at 2 h recorded for the compound COc1cc(N)c(Cl)cc1C(=O)NCC1CCN(CCCS(=O)(=O)Cc2ccccc2)CC1 [Y-36912] 60.5

====

- assayedSystem: 5-HT4 receptor (Cavia porcellus, UniProt O70528)
- Construct: Crude synapse membrane sample was prepared from guinea pig striatum; from tissue; host or cells: guinea pig striatum, crude synaptic membranes
- Sequence (O70528 whole entry): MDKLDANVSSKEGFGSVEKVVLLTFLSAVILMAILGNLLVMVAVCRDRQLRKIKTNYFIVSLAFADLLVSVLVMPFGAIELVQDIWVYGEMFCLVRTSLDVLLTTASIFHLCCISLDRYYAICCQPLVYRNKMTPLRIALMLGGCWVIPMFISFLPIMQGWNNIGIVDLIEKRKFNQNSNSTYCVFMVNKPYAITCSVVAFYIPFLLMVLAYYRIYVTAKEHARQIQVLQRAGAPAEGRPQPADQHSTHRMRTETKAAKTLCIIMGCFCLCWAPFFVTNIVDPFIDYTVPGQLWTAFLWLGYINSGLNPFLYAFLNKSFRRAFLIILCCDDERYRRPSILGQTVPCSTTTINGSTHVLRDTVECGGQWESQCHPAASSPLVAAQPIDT
- assayDetails: 5-HT4 receptor binding test
- setupConditions: guinea pig striatum crude synapse membrane, [3H]GR113808 0.1 nM, 37°C; read-out: Affinity for receptor (Ki value, nM) 5-HT4
- Experimental: According to the method of C.J. Grossman et al. [British Journal of Pharmacology, vol. […] The filter was washed with 50 mM HEPES buffer, and the radioactivity on the filter was counted by liquid scintillation counter. The non-specific binding was determined in the presence of 1µM GR113808. […]
readoutKind: Ki (nM)
Answer with a number only, understood to be in nM.

Please list Ki recorded for the compound COc1cc(N)c(Cl)cc1C(=O)NCC1CCN(CCCS(=O)(=O)Cc2ccccc2)CC1 1.5

====

- assayedSystem: 5-HT3 receptor (Rattus norvegicus, UniProt P35563)
- Sequence (P35563 24-483): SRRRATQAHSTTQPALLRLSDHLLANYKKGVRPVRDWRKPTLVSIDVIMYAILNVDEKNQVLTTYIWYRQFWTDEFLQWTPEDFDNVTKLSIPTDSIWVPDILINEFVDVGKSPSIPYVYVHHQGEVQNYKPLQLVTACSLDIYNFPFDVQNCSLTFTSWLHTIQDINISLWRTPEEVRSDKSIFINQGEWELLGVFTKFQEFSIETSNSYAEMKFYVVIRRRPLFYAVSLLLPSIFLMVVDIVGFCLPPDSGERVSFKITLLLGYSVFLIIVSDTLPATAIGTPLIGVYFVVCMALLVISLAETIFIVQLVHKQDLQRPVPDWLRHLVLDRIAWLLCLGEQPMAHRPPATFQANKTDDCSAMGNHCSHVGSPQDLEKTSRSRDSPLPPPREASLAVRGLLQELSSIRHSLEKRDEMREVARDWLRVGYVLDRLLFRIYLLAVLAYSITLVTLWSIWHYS
readoutKind: IC50

Please list IC50 recorded for the compound COc1cc(N)c(Cl)cc1C(=O)NCC1CCN(CCCS(=O)(=O)Cc2ccccc2)CC1 > 1000 nM
